Catalogue of binders with associated kon
Measured on: T1, Cynomolgus TNFR2-His (Sino 90102-C08H) (cynomolgus monkey, UniProt A0A2K5VET2 132-366)
T1 construct: Bought protein; also called cynomolgus monkey TNFR2; recombinant cynomolgus monkey TNFR2 protein; not shown: His tag
T1 sequence: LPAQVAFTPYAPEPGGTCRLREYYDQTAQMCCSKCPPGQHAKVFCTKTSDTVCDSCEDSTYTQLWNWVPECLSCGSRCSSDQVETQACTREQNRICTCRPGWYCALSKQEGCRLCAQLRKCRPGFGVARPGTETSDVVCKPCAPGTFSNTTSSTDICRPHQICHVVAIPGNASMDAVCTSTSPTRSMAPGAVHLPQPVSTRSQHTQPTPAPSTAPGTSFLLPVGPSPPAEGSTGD
Test name: SPR (Biacore T200), antibody captured on Protein A chip
Parameter measured: kon (M⁻¹ s⁻¹)

224-Hu6 (antibody, V domains shown, Humanized form of #224; also called VH8 + VL7) VH: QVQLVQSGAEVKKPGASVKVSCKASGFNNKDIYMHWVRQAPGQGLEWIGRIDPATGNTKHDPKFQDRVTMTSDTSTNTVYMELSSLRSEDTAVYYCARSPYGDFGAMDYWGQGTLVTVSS VL: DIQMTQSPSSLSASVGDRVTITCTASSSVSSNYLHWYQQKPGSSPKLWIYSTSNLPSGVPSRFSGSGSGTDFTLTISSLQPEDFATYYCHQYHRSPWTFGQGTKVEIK ... 323000
001-Hu3 (antibody, V domains shown, Humanized form of #001; also called VH1 + VL3) VH: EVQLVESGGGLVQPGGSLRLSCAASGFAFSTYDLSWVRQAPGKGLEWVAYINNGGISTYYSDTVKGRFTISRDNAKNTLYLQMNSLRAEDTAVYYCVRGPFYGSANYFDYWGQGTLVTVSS VL: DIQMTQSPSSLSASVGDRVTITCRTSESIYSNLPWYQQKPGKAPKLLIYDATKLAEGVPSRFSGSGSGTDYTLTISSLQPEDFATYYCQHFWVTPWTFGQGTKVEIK ... 361000
224-WT (antibody, V domains shown, Human-murine chimeric wild-type molecule; also called human-murine chimeric antibody WT of #224) VH: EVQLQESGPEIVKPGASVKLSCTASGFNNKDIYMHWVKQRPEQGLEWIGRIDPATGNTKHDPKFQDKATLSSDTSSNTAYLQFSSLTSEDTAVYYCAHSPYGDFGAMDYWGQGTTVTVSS VL: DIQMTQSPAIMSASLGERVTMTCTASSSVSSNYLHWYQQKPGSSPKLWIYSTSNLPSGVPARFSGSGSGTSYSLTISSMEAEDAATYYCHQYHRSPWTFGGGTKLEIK ... 456000

Origin of the recorded values: patent US20240109974A1
